Test system: Malme-3M
ASSAY SUMMARY: NCI tumour cell line growth inhibition, 48 h
The source made the active and inactive calls. Cut-off read from the data, not from the text of the source: active = GI50 up to about 1.1 µM and inactive = higher. *1 amine or outer side, *2 acyl side, *3 side chain or, on linkers, in order; H or OH if unused. Where a SMILES comes first, the peptide text is derived from it. Bridges are numbered along the chain shown (N, C = ends). Roman numbers before positions name the chains, in order. [ ]: non-standard residue; d: D form. Actinocin(9to1) = Cc1c2oc3c(C)ccc(C(=O)[*:1])c3nc-2c(C(=O)[*:2])c(N)c1=O; NMeV = CN[CH](C(=O)O)C(C)C; Sar = CNCC(=O)O
Permitted responses: 1 (yes) = active, 0 (no) = inactive

Below are worked cases with known answers.
- COC(=O)/C=C\C(C#N)(C#N)/N=C/c1cccs1: 0 (no)
- Cc1nc2[nH]ccn2c(=O)c1CCCl: 0 (no)
- OCCNc1ncnc2c1ncn2C1OC(CO)C(O)C1O (stereo not drawn): 0 (no)
- CC(=O)CC(=O)c1cc2c(=O)oc(C)cc2oc1=O: 0 (no)

[ask] What was the test verdict on "Nn1c(S)nnc1N/N=C1/C(=O)Nc2ccccc21" ?
[reply] 0 (no)

[ask] What was the test verdict on "CC1=NN(C(=O)c2ccccc2O)C(=O)/C1=C/c1cccc(O)c1" ?
[reply] 0 (no)

[ask] What was the test verdict on N#C[BH2-][n+]1cn(C2CC(O)C(COP(=O)(O)OC3CC(n4c[n+]([BH2-]C#N)c5c(=O)[nH]c(N)nc54)OC3CO)O2)c2nc(N)[nH]c(=O)c21 (stereo not drawn) ?
[reply] 0 (no)

[ask] What was the test verdict on "CCc1ccc(Nc2ccc([N+](=O)[O-])cc2[N+](=O)[O-])cc1" ?
[reply] 0 (no)

[ask] What was the test verdict on Cc1c2oc3c(C)ccc(C(=O)NC4C(=O)NC(C(C)C)C(=O)N5CCCC5C(=O)N(C)CC(=O)N(C)C(C(C)C)C(=O)OC4C)c3nc-2c(C(=O)NC2C(=O)NC(C(C)C)C(=O)N3CCCC3C(=O)N(C)CC(=O)N(C)C(C(C)C)C(=O)OC2C)c(N)c1=O (stereo not drawn) (I: TVP[Sar][NMeV] / II: TVP[Sar][NMeV]; ester I:1-I:C, II:1-II:C; linker I:N-II:N via Actinocin(9to1); configuration not given here) ?
[reply] 1 (yes)

[ask] What was the test verdict on "COC(=O)c1nc(-c2ccc(Cl)c(Cl)c2)nc2ccccc12" ?
[reply] 0 (no)

[ask] What was the test verdict on "COc1cc(/C=N/N=C(\N)NO)ccc1O" ?
[reply] 0 (no)

[ask] What was the test verdict on "CSc1nc(Cl)c2c(n1)Sc1nc3ccccc3n1N=C2" ?
[reply] 0 (no)

[ask] What was the test verdict on CC(=O)NC1C(OC(C)C(=O)NC(C)C(=O)NC(CCC(=O)NCCCCCNc2ccc([N+](=O)[O-])c3[nH]c4ccccc4c(=O)c23)C(N)=O)C(O)C(CO)OC1(C)OCc1ccccc1 (stereo not drawn) ?
[reply] 0 (no)

[ask] What was the test verdict on "CC1=Nc2ccccc2S(=O)(=O)N1" ?
[reply] 0 (no)

[ask] What was the test verdict on "O=C1C=Cc2c(Br)sc(Br)c21" ?
[reply] 0 (no)

[ask] What was the test verdict on "Cc1ccc(Cl)c2c(=O)cc(-c3ccccc3)[nH]c12" ?
[reply] 0 (no)

[ask] What was the test verdict on "CCNC(=S)N/N=C(/C)c1cccc(/C(C)=N\NC(=S)NCC)n1" ?
[reply] 0 (no)

[ask] What was the test verdict on CC12C=CC(=O)C=C1CCC1C3CCC(O)(C(=O)CO)C3(C)CC(O)C12F (stereo not drawn) ?
[reply] 0 (no)

----------
Tested on: SF-295
ASSAY SUMMARY: NCI tumour cell line growth inhibition, 48 h
Active and inactive are the calls of the source. Cut-off read from the data, not from the text of the source: active = GI50 up to about 1.1 µM and inactive = higher.
MEASUREMENT LABEL: GI50

// worked examples, GI50 included
• C[C@@](Br)(C(=O)O)[C@H](Br)C(=O)O = > 100 µM (inactive)
• O=C1c2ccccc2-c2c1c1ccccc1c(=O)n2-c1cccnc1 = 27 µM (inactive)
• CNC(SC)=C1C(=O)OC(C)(C)OC1=O = > 100 µM (inactive)
• c1ccc2c(c1)CCc1cc3cc4c(nc3nc1-2)-c1ccccc1CC4 = > 100 µM (inactive)
• CC12CC(Br)(Br)C(=O)C3C1CCCC32 = 15.9 µM (inactive)
• CN(C)CCCNc1c2c(=O)n(C)c(=O)nc-2n(C)c2ccccc12 = 6.43 µM (inactive)

The value of GI50 recorded for "N#Cc1c(C#N)c(-c2ccccc2)n(-c2ccccc2)c1N" when tested on SF-295 reads 15.3 µM (inactive)

The value of GI50 recorded for "O=c1ssc2ncccc12" when tested on SF-295 reads 33.5 µM (inactive)

The value of GI50 recorded for "Cc1cc2cc3c(C)cc(=O)oc3c(C)c2o1" when tested on SF-295 reads > 100 µM (inactive)

The value of GI50 recorded for CCCNC(=O)N(C)C(=O)N1N=C(c2ccccc2)C1c1ccccc1 (stereo not drawn) when tested on SF-295 reads 64.7 µM (inactive)

The value of GI50 recorded for COc1cc(CC2C(=O)OCC2Cc2ccc(OC)c(OC)c2)ccc1O (stereo not drawn) when tested on SF-295 reads 8.85 µM (inactive)

The value of GI50 recorded for "COc1cc(CNCc2cc(OC)c(OC)c(OC)c2)cc(OC)c1OC" when tested on SF-295 reads > 10 µM (inactive)

The value of GI50 recorded for "Cc1cc2c(C)nn(Cc3ccccc3Cl)c2c(C#N)c1C" when tested on SF-295 reads > 100 µM (inactive)

The value of GI50 recorded for CCOC(=O)CCC(NC(=O)OCc1ccccc1)C(=O)NC(CCC(=O)OCC)C(=O)NC(CCC(=O)OCC)C(=O)NC(CCC(=O)OCC)C(=O)NC(CCC(=O)OCC)C(=O)OCC (stereo not drawn) when tested on SF-295 reads > 100 µM (inactive)

The value of GI50 recorded for "CN(C)c1ccc(-c2ccc(N(C)C)c3n[se]nc23)c2n[se]nc12" when tested on SF-295 reads > 100 µM (inactive)

The value of GI50 recorded for Fc1cc2nc3n(c2cc1F)C(c1c(Cl)cccc1Cl)SC3 (stereo not drawn) when tested on SF-295 reads 13.4 µM (inactive)

The value of GI50 recorded for "COc1ccc2nc3c([N+](=O)[O-])ccc4c3c(c2c1)N=CN4CCN(C)C" when tested on SF-295 reads 5.57 µM (inactive)

The value of GI50 recorded for C/C=C/C#CC#C/C=C/C=C/C(O)CCO (stereo not drawn) when tested on SF-295 reads > 18.7 µM (inactive)

The value of GI50 recorded for "Cc1cc(S(=O)(=O)Nc2n[nH]c(Nc3ccccc3)n2)c(S)cc1Cl" when tested on SF-295 reads > 10 µM (inactive)

The value of GI50 recorded for CCOC(=O)c1cc(C2CCN(Cc3ccccc3)C2=S)c(C(=O)C=[N+]=[N-])[nH]1 (stereo not drawn) when tested on SF-295 reads 20.5 µM (inactive)

The value of GI50 recorded for "C/C(=N\NS(=O)(=O)c1ccc(C)cc1)c1cc2ccccc2n1C" when tested on SF-295 reads > 100 µM (inactive)

The value of GI50 recorded for c1ccc2cc(C3NCCc4nc[nH]c43)ccc2c1 (stereo not drawn) when tested on SF-295 reads 68.5 µM (inactive)

The value of GI50 recorded for "CC(C)(CC(=O)Nc1ccccc1)C(=O)O" when tested on SF-295 reads > 100 µM (inactive)

----------
Test system: TK-10
ASSAY SUMMARY: NCI tumour cell line growth inhibition, 48 h
Activity calls are given as the source filed them. Rule as the data show it: active = GI50 up to about 1.1 µM and inactive = higher.
Permitted responses: active, inactive

• O=C1c2cccc3cc4ccccc4c(c23)C(=O)N1CCCNCCNCCCN1C(=O)c2cccc3cc4ccccc4c(c23)C1=O = active

[ask] What was the test verdict on "OCCC/N=C1N=C(Cl)/C(=C\c2ccccc2)N\1" ?
[reply] inactive

[ask] What was the test verdict on "c1ccc2cc(CN3CCC(C4CCN(Cc5ccc6ccccc6c5)CC4)CC3)ccc2c1" ?
[reply] inactive

[ask] What was the test verdict on N#CC(c1cc(Cl)ncn1)c1nc2cc(C(F)(F)F)ccc2s1 (stereo unspecified) ?
[reply] inactive

[ask] What was the test verdict on "CC(=O)CC(=O)c1cc2c(=O)oc(C)cc2oc1=O" ?
[reply] inactive

[ask] What was the test verdict on C/C=C/C#CC#C/C=C/C=C/C(O)CCO (stereo unspecified) ?
[reply] inactive

----------
Tested on: SF-268
ASSAY SUMMARY: NCI tumour cell line growth inhibition, 48 h
The source made the active and inactive calls. Rule as the data show it: active = GI50 up to about 1.1 µM and inactive = higher.
Recorded GI50 for the following molecules

// worked examples, GI50 included
- CCCCCC(O)[C@H]1C(=O)C[C@@H](O[Si](C)(C)C(C)(C)C)[C@@H]1/C=C/CCOCc1ccccc1 (stereo partly specified): 16.3 µM (inactive)
- COc1ccc(Cl)cc1NC(=O)O/N=C(\Cl)C(C)C: 21.5 µM (inactive)
- O=C(c1nc2ccc(Cl)cc2nc1O)C(O)c1ccccc1 (stereo unspecified): 77.1 µM (inactive)

Note to self: GI50 recorded for "Cc1cccc2c1C(=O)[C@](C)([C@]1(C)Nc3cccc(C)c3C1=O)N2" was 16.1 µM (inactive)

Note to self: GI50 recorded for "NC(=O)C(=CNC(=S)Nc1ccc(Cl)c(Cl)c1)C(N)=O" was > 90.8 µM (inactive)

Note to self: GI50 recorded for "Cc1ccc(Nc2c(C#N)[n+]([O-])c3cc(Cl)ccc3[n+]2[O-])cc1" was 28.4 µM (inactive)
